Values were extracted from ChEMBL document CHEMBL5113386.

Molecular target: Sodium- and chloride-dependent GABA transporter 1 (Mus musculus)
Experiment: Binding affinity to mouse GAT-1 assessed as inhibition constant
measured-property: pKi
Numbers only, as −log10 of the molar value.

INSERT INTO results (molecule, target, measured_property, numeric_readout) VALUES
  ('O=C(O)[C@@H]1CCCN(CC/C=C/c2ccccc2-c2ccc(Cl)cc2Cl)C1', 'Sodium- and chloride-dependent GABA transporter 1 (Mus musculus)', 'pKi', 8.33);

Lab note: O=C(O)C1CCCN(CC/C=C/c2ccccc2-c2ccc(Cl)cc2Cl)C1 (configuration not stated) gave pKi of 8.05

* * *

For each record, write down the corresponding IC50.
Molecular target: GABA transporter 2 (Mus musculus, UniProt P31651)
Sequence (P31651 whole entry): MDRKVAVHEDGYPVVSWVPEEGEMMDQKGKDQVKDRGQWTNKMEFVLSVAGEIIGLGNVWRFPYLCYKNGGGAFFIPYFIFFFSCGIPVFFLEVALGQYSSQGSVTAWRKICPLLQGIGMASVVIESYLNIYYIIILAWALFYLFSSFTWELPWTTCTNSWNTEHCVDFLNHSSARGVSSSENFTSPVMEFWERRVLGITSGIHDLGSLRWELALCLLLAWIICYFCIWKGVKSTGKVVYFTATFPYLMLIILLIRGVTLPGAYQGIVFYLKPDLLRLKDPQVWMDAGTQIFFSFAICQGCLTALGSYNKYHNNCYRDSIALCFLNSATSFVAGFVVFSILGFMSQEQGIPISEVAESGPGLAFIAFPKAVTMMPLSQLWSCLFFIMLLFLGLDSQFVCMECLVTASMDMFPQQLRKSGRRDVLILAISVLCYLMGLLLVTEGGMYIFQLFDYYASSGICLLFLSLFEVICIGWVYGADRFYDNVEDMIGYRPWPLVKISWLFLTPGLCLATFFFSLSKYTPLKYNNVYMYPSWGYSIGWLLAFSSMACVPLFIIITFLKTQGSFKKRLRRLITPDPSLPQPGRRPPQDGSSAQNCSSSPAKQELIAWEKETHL
Assay: Inhibition of mouse GAT-2 expressed in human HEK293 cells assessed as inhibition of [3H]GABA uptake
Give bare numbers, in µM.

Would you mind giving IC50 for every compound in the list below?
1. CCOC(=O)C1CCCN(CCCCN2CC3C4(c5ccccc5)CC2CC3(c2ccccc2)C4)C1 (configuration not stated)
2. CCOC(=O)C1CCCN(CCCN2CC3C4(c5ccccc5)CCCC3(c3ccccc3)CC2C4)C1 (configuration not stated)

[100, 52.5]

* * *

For each record, write down the corresponding selectivity ratio.
Assay: Protective index, ratio of TD50 for motor coordination in mouse to ED50 for protection against maximal electroshock seizures in mouse
Assay type: toxicity, organism-based
Conditions: in vivo, read-out: PI
Answers are plain numbers.

Recorded results for 2 molecules are shown here.
INSERT INTO measurements (molecule, numeric_readout) VALUES
  ('Cc1cccc(C)c1NC(=O)[C@@H]1CCCNC1', 3),
  ('Cc1cccc(C)c1NC(=O)[C@H]1CCCNC1', 3.4);

Moving on to another molecule below.
Lab note: Cc1cccc(C)c1NC(=O)C1CCCNC1 (racemic) gave selectivity ratio of 5.7
